- Test system: Normal human keratinocytes (newborn infant foreskin-derived epidermal keratinocyte)
- protocol: Growth of normal human keratinocytes (H3-thymidine uptake)
- Assay type: cell-based
- details: Homo sapiens, Keratinocyte; H3-thymidine uptake, 22 h + 2 h culture, 0.01 to 10 μM; read-out: Human keratinocyte growth inhibition IC50
property: IC50 (nM)

{"structure_smiles_string": "COc1ccc(N(Cc2ccnc(-c3cc(OC)c(OC)c(OC)c3)c2)C2CCN(Cc3ccnc(-c4cc(OC)c(OC)c(OC)c4)c3)CC2)cc1", "measurement_unit": "nM", "recorded_result": 247}

Data origin, for the record: patent US20090042901A1
